Taken from patent US20240317847A1.

Listing of entries alongside the reported pKd.
# systemUnderTest: T1, human IL-11 (Invigate, e.g., lot #C121021-19) (human, UniProt P20809 22-199)
# T1 construct: Bought protein; also called hIL-11; hIL11
# T1 sequence: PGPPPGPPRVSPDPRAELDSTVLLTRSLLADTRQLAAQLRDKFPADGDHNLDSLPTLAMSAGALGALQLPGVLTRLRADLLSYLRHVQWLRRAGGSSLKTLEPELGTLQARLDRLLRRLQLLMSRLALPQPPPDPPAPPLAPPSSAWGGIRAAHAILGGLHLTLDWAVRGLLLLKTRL
# assayRemarks: SPR, Biacore 8K; antibody captured on anti-human IgG Fc chip, IL-11 analyte 0-50 nM, 1:1 fit
Lab note: report pKd as minus log10 of the concentration in molar units, number only.

{"binder": "TPP-31308 (antibody, human IgG4, V domains shown, consecutive numbering; also called VH-G55S) VH: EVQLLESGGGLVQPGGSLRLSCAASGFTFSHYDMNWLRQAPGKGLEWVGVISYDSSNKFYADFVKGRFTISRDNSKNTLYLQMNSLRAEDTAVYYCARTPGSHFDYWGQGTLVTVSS VL: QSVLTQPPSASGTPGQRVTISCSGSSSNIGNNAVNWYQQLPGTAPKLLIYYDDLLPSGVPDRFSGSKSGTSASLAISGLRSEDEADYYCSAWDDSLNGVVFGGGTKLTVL", "pKd": 7.40}
{"binder": "TPP-31307 (antibody, human IgG4, V domains shown, consecutive numbering; also called VH-G55A / VL-G98A) VH: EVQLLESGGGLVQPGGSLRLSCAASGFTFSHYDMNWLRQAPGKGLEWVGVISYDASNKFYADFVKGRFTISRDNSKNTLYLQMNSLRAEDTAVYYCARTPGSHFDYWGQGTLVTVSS VL: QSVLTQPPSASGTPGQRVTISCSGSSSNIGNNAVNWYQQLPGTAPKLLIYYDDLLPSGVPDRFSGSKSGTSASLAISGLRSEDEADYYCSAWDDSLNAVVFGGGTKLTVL", "pKd": 7.51}
{"binder": "TPP-31298 (antibody, human IgG4, V domains shown, consecutive numbering; also called VL-N97S) VH: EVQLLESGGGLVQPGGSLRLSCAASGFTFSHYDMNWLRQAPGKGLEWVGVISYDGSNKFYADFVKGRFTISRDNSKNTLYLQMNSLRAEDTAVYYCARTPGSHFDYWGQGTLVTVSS VL: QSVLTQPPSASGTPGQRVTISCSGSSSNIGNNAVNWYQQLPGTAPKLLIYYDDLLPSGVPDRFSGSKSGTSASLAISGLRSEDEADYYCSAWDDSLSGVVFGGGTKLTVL", "pKd": 8.03}
{"binder": "TPP-31300 (antibody, human IgG4, V domains shown, consecutive numbering; also called VH-D54E) VH: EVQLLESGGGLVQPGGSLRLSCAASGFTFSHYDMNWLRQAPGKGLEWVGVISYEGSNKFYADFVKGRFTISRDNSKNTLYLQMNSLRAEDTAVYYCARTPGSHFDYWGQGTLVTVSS VL: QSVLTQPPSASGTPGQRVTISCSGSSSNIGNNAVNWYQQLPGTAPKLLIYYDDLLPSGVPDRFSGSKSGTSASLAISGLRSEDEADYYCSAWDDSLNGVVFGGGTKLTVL", "pKd": 8.42}

Next:
Prompt: Name the recorded pKd for TPP-31297 (antibody, human IgG4, V domains shown, consecutive numbering; also called VL-N97Q) VH: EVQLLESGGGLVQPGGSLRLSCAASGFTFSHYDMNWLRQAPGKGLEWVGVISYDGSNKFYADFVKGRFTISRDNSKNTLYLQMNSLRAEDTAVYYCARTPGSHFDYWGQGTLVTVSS VL: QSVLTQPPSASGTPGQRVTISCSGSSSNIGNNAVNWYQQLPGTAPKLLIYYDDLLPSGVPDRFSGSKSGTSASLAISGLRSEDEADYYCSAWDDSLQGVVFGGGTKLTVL .
Completion: 8.06
